- Test system: CCRF-CEM leukemia
- Test Details: NCI tumour cell line growth inhibition, 48 h
Each entry below carries its reported TGI.

[
  {
    "Smiles Entry": "CC(C)C(OC(=O)c1ccc(NCC2=CC(=O)C=CC2=O)cc1)C(C)C",
    "Target Desc": "CCRF-CEM leukemia",
    "Reported Relation": "=",
    "TGI [µM]": 2.36
  },
  {
    "Smiles Entry": "CC(=O)NNc1nc(C)c(C(/C=C/c2ccccc2O)=N/N=C(N)N)s1",
    "Target Desc": "CCRF-CEM leukemia",
    "Reported Relation": ">",
    "TGI [µM]": 100
  },
  {
    "Smiles Entry": "Clc1cccc(-c2nnc(-c3nn(-c4ccccc4)c4nc5ccccc5nc34)o2)c1",
    "Target Desc": "CCRF-CEM leukemia",
    "Reported Relation": ">",
    "TGI [µM]": 100
  },
  {
    "Smiles Entry": "O=C1Nc2nccnc2C(=O)N2CCC[C@@H]12",
    "Target Desc": "CCRF-CEM leukemia",
    "Reported Relation": ">",
    "TGI [µM]": 100
  },
  {
    "Smiles Entry": "COc1c(-c2ccccc2)nc2ccc(Oc3ccccc3)nn12",
    "Target Desc": "CCRF-CEM leukemia",
    "Reported Relation": "=",
    "TGI [µM]": 99.3
  },
  {
    "Smiles Entry": "O=c1c(Cl)c(Cl)cnn1CCCl",
    "Target Desc": "CCRF-CEM leukemia",
    "Reported Relation": "=",
    "TGI [µM]": 4.84
  }
]
